Data credit: PubChem BioAssay (NCATS)

- Assayed Target: Peroxisome proliferator-activated receptor alpha (Homo sapiens) (UniProt Q07869)
- Sequence (Q07869 whole entry, looked up): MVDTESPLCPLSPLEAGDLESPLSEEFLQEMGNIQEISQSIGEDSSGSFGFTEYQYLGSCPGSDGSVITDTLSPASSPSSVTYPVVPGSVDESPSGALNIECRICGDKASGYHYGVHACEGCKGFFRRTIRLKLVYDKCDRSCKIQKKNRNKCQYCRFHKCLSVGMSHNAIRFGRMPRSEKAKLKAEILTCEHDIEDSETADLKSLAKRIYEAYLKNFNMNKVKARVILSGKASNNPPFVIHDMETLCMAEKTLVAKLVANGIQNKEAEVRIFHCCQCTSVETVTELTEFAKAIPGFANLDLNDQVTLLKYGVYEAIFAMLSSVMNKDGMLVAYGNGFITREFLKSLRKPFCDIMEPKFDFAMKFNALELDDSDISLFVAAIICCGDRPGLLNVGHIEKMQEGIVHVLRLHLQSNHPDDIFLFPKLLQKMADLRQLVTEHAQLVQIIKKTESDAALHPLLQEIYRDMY
- Test: qHTS assay for small molecule agonists of the peroxisome proliferator-activated receptor alpha (PPARalpha) signaling pathway (AID 651778); further: % of control where 0% means no effect
- Condition Label: PathHunter PPARalpha complementation, chemiluminescence, 6 h; stronger effect = higher value
Measured Quantity: max response (%)
Give bare numbers, in %.

Guide cases for max response, answers given:
COC1=CC(=O)OC(CCc2ccc3c(c2)OCO3)C1 (stereo not drawn)    -0.116
Cc1ccc2cc3c(ccc4ccccc43)c3c2c1CC3    -0.967
C[C@H]1O[C@H](OC2[C@@H](O)[C@@H](O)C(O)[C@H](O)[C@H]2O)[C@@H](N)C[C@@H]1N=C(N)C(=O)O (stereo partly drawn)    -0.85

# per-item lookup of max response; items listed below
1. CCOC(=O)c1ccccc1N
2. CC(C)OC(=O)Nc1ccccc1
3. OCCN(CCO)CCO
4. Cc1ccc(C)c2ccccc12
5. CC(C)COC(=O)c1ccccc1C(=O)OCC(C)C

[-7.33, -0.246, -0.143, -1.64, -0.716]
